Just for reference, ChEMBL document CHEMBL1909622 is where these values come from.

# protocol.details: Half life in rat at 2 mg/kg, iv
# Assay type: ADME, organism-based
# Set-up: dose 2 mg/kg, route intravenous
# condition.details: in vivo

| structure.smiles.string | half-life, h |
| --- | --- |
| O=C(NCc1cc(F)cc(F)c1)c1nc(N2CCCCS2(=O)=O)cc(Br)c1O | 5.4 |

* * *

# protocol.details: Oral bioavailability in dog at 1 mg/kg
# Assay type: ADME, organism-based, Canis lupus familiaris
# condition.details: in vivo

| structure.smiles.string | bioavailability [%] |
| --- | --- |
| O=C(NCc1cc(F)cc(F)c1)c1nc(N2CCCCS2(=O)=O)cc(Br)c1O | 13 |

* * *

# protocol.details: Volume of distribution at steady state in dog at 0.5 mg/kg, iv and 1 mg/kg, po
# Format: ADME, organism-based, Canis lupus familiaris
# condition.details: in vivo, read-out: Vdss

| structure.smiles.string | Vd |
| --- | --- |
| O=C(NCc1cc(F)cc(F)c1)c1nc(N2CCCCS2(=O)=O)cc(Br)c1O | 3 L/kg |

* * *

# protocol.details: Half life in dog at 0.5 mg/kg, iv
# Type: ADME, organism-based, Canis lupus familiaris
# Set-up: dose 0.5 mg/kg, route intravenous
# condition.details: in vivo

| structure.smiles.string | half-life |
| --- | --- |
| O=C(NCc1cc(F)cc(F)c1)c1nc(N2CCCCS2(=O)=O)cc(Br)c1O | 7.1 h |

* * *

# protocol.details: Volume of distribution at steady state in rat at 2 mg/kg, iv and 10 mg/kg, po
# Type: ADME, organism-based
# condition.details: in vivo, read-out: Vdss

| structure.smiles.string | Vd |
| --- | --- |
| O=C(NCc1cc(F)cc(F)c1)c1nc(N2CCCCS2(=O)=O)cc(Br)c1O | 0.4 L/kg |

* * *

# protocol.details: Clearance in dog at 0.5 mg/kg, iv and 1 mg/kg, po
# Format: ADME, organism-based, Canis lupus familiaris
# condition.details: in vivo

| structure.smiles.string | clearance (mL/min/kg) |
| --- | --- |
| O=C(NCc1cc(F)cc(F)c1)c1nc(N2CCCCS2(=O)=O)cc(Br)c1O | 5.1 |

* * *

# protocol.details: Oral bioavailability in rat at 10 mg/kg
# Type: ADME, organism-based
# condition.details: in vivo
readout.type: bioavailability (%)

| structure.smiles.string | value.unit | measured.value |
| --- | --- | --- |
| O=C(NCc1cc(F)cc(F)c1)c1nc(N2CCCCS2(=O)=O)cc(Br)c1O | % | 26 |
